Hello, the source for this data is the supplement of paper PMC11865577, in case you need it.

test system: TO-N3-2 (biotin conjugate); assay: pull-down binding Z-score (relative to library population); higher = stronger binding; conditions: RNA library: Library-2
Values of pull-down binding Z-score greater than or equal to -0.4 map to yes (1); values below map to no (0).

Q: Reported pull-down binding Z-score at or above -0.4? CUUUAGUAAUUACCUAAAGAGACGUGUAGUCUUUAAUGGUGUUUCCUUUAG
Result: no (0)

Q: Item UGUACAGGUGAGCGGAUGUUCUGCACA [hsa-mir-3120] with pull-down binding Z-score of -0.4 or above?
Result: yes (1)

Q: Could you tell me if the measured pull-down binding Z-score of CAGCUACACAAGCUG [hsa-mir-631] reaches -0.4 or more?
Result: no (0)

Q: Record GUCUUGGGGUGGGGGAUCAAGAC [hsa-mir-642a] ; criterion: pull-down binding Z-score no lower than -0.4. Met?
Result: yes (1)

Q: Is reported pull-down binding Z-score greater than or equal to -0.4 here: UAUUCUGAUGUCCAAGUGGAAA [hsa-mir-372]
Result: no (0)

Q: Textbook exercise: given the entry GUACCAAAGGUGC [IAV_invivo_PB1_2_Motif_35+IAV_invivo_PB1_2_Motif_35] , state whether its pull-down binding Z-score is greater than or equal to -0.4.
Result: yes (1)

Q: Hi, just wondering whether UAUUCGCUUUAUUGACUUCGAAUA [hsa-mir-369] shows pull-down binding Z-score of -0.4 or higher.
Result: no (0)

Q: Exam item: decide whether the reported pull-down binding Z-score for AUUAUGUGUACCUUCCUUACCCAGAUCCAUCAAGAAUCCUAGGGGCCGGCUGUUUUGUAGAUGAUAUCGUAAAAACAGAUGGUACACUUAUGAU [DMSMaPseq_invitro_SARS-CoV-2_Multi_47_ComplexLevel_1] is at least -0.4.
Result: yes (1)

Q: I'd appreciate it if you could say whether GCGCAGCCAGAAACUGGCCGCGC [mismatch-AC] has pull-down binding Z-score at least equal to -0.4.
Result: no (0)

Q: For this sequence, is measured pull-down binding Z-score -0.4 or higher? GGAGUAAGUCUGAUACUUACCUG [U1snRNP5ss-1]
Result: yes (1)

Q: # bool: pull-down binding Z-score of CAACAAUGUGUGAUAUCAGACAACUACUAUUUGUAGUUGAAGUUGUUG >= -0.4
Result: yes (1)

Q: Reported pull-down binding Z-score reaches at least -0.4 for UGGCGGCGGCGAGGACACCGCCGCU [hsa-mir-4469] ?
Result: yes (1)

Q: Identify whether the reported pull-down binding Z-score of the following sequence is -0.4 or greater: AGAUAGUGAAGUAGAUUAGCAUCUACU [hsa-mir-18a]
Result: yes (1)

Q: Reported pull-down binding Z-score at or above -0.4? AGGCAUUAGGAUCCUUAUUCUUGCCU [hsa-mir-4788]
Result: yes (1)

Q: # bool: pull-down binding Z-score of GGAUGUGUUGACCCCUGAAGUGGUUCUGAUGACCUUUCC [hsa-mir-6883] >= -0.4
Result: yes (1)

Q: State whether the measured pull-down binding Z-score reaches -0.4, counting equality as reaching it, for CAGAGGCAUCGGGUCAG [hsa-mir-4746]
Result: yes (1)

Q: Say whether CAGCCCGUGGUGGGG [hsa-mir-3619] shows pull-down binding Z-score of -0.4 or more.
Result: yes (1)

Q: In plain terms: is recorded pull-down binding Z-score at least -0.4 for AACGGGGCGGGCCUCGGGCGGGGUAA [G4_2A2_VEGF-Pu22-mt3] ?
Result: yes (1)

Q: Entry CACUCCCGUGCUUGUCCGAGGAGGGAGG [hsa-mir-149] : is its pull-down binding Z-score no less than -0.4?
Result: yes (1)

Q: Answer whether pull-down binding Z-score of CUCCUAUUGAAAAUGAACAGGAG [hsa-mir-873] is greater than or equal to -0.4.
Result: no (0)

Q: Hi, just wondering whether UAUAGUGUGUUUGAUUUGCACUGUA [hsa-mir-4703] shows pull-down binding Z-score of -0.4 or higher.
Result: no (0)
